# IC50 listing for each entry below
Target: Prolyl 4-hydroxylase (Gallus gallus)
Assay: ChEBML_157453
Response body: numeric value in µM, unit text excluded.

Worked cases, IC50 given:
{"Chemical String": "Cc1ccc(NC(=O)c2ccc(C(=O)O)nc2)cc1", "Experimental Result": 8.3}
{"Chemical String": "COc1ccc(NC(=O)c2ccc(C(=O)O)nc2)cc1", "Experimental Result": 21.1}
{"Chemical String": "O=C(Nc1ccc(Cl)cc1)c1ccc(C(=O)O)nc1", "Experimental Result": 17.4}
{"Chemical String": "CCOc1ccccc1NC(=O)c1ccc(C(=O)O)nc1", "Experimental Result": 32.9}
{"Chemical String": "CN(C)c1ccc(C(=O)Nc2ccc(C(=O)O)nc2)cc1", "Experimental Result": 11.3}

Answer with IC50 of O=C(Nc1cccc(Cl)c1)c1ccc(C(=O)O)nc1 measured for Prolyl 4-hydroxylase (Gallus gallus).
32.2

Write down the reported IC50 (system: Prolyl 4-hydroxylase (Gallus gallus)) of CCOc1ccc(C(=O)Nc2ccc(C(=O)O)nc2)cc1
11.2

// output IC50; input O=C(O)c1ccc(NCc2ccc(F)cc2)cn1 ; system Prolyl 4-hydroxylase (Gallus gallus)
31

// output IC50; input COc1ccccc1NC(=O)c1ccc(C(=O)O)nc1 ; system Prolyl 4-hydroxylase (Gallus gallus)
14.8

Retrieve IC50 on Prolyl 4-hydroxylase (Gallus gallus); query O=C(Nc1ccccc1Cl)c1ccc(C(=O)O)nc1
16.3

Send back Prolyl 4-hydroxylase (Gallus gallus) IC50 of O=C(O)c1ccc(NC(=O)c2ccccc2F)cn1 only.
33.8

Report IC50 under test system Prolyl 4-hydroxylase (Gallus gallus) for O=C(Nc1ccc(F)cc1)c1ccc(C(=O)O)nc1 .
16.1
